- Test system: MDA-MB-435
- PROTOCOL DETAILS: NCI tumour cell line growth inhibition, 48 h
Use 20 µM as the dividing line for TGI, with the line itself on the YES side and lower values as NO.

| MOLECULE | ASSIGNED LABEL |
| --- | --- |
| CN(CCCCCl)P(=O)(OCc1ccc([N+](=O)[O-])o1)OCC1OC(n2cnc([N+](=O)[O-])c2N)C(O)C1O (stereo not given) | YES |
| Cc1nc2cc(Nc3nc(Nc4ccc(F)cc4)nc(N4CCOCC4)n3)ccc2n1Cc1ccccc1 | NO |
| CCCCCCCCCCCCCC[n+]1ccc(C)cc1 | NO |
| CC(C)(C)OC(=O)NCc1cccc(N=C=S)c1 | YES |
| Cc1nc2sc(C(=O)c3ccc(Cl)cc3)c(N)c2c(-c2ccccc2Cl)c1C(=O)Nc1ccccc1 | YES |
| Cc1cc(O)c(C2=NN(c3ccc(S(N)(=O)=O)cc3)C(/C=C/c3ccccc3)C2)cc1Cl (stereo not given) | YES |
| COC(=O)C(C(=O)OC)C(Br)C(Br)C(Br)c1ccccc1 (stereo not given) | YES |
| O=C(O)/C=C/c1ccc2c(c1)CC1(Cc3ccccc3C1)C2 | YES |
| COc1ccc(NCC(=O)Nn2c(-c3ccccc3)nc3ccccc3c2=O)cc1 | YES |
| Nc1nc(N)c2nc3c(nc2n1)CCCCCCCCCC3 | YES |
